Data origin, for the record: patent US20220315578A1

This listing pairs molecules with measured DC50.
- target-or-system: BRD9-GFP (Homo sapiens)
- Construct: CHYSEL (2A cis-acting hydrolase element) remnant after GFP; mCherry is split off as a separate protein (C); expressed in transfected cells; host or cells: HEK293A cells (Invitrogen R70507), lentiviral transduction with pLenti6-BRD9-GFP-CHYSEL-mCherry, blasticidin selection
- assay-details: BRD9-GFP protein abundance flow cytometry assay in HEK293A cells
- Assay type: cell-based
- run-parameters: HEK293A-BRD9-GFP-CHYSEL-mCherry cells, 24 h at 37° C., 10-point 1:3 dilution; concentration at which 50% maximal degradation was observed
// units = nM; emit number, no label

Solved entries (count: 4):
line_notation=CCCn1cc(-c2ccc(CN3CC[C@@H](OC4CCN(C(=O)c5cccc(N6CCC(=O)NC6=O)c5)CC4)[C@H](F)C3)cc2)c(C)c(C)c1=O target_or_system="BRD9-GFP (Homo sapiens)" result=5
line_notation=COc1cc(-c2cn(C)c(=O)c3cnccc23)c(OC)cc1CN1CC[C@@H](OC2CCN(CCn3cccc(CN4CCC(=O)NC4=O)c3=O)CC2)[C@H](F)C1 target_or_system="BRD9-GFP (Homo sapiens)" result=4
line_notation=CCCCn1cc(-c2cc(F)c(CCN3CCC(OC4CCN(C(=O)c5ccc(Cl)c(N6CCC(=O)NC6=O)c5)CC4)CC3)c(OC)c2)c2ccncc2c1=O target_or_system="BRD9-GFP (Homo sapiens)" result=4
line_notation=COc1ccc(C(=O)N2CCC(OC3CCN(C(=O)/C=C/c4c(OC)cc(-c5cn(C)c(=O)c6cnccc56)cc4OC)CC3)CC2)cc1N1CCC(=O)NC1=O target_or_system="BRD9-GFP (Homo sapiens)" result=10

Lookup: Returns the measured DC50 for the input molecule. Input: CCCCn1cc(-c2cc(OC)c(CN3CC[C@@H](OC4CCN(C(=O)c5ccc(OC)c(N6CCC(=O)NC6=O)c5)CC4)[C@H](F)C3)cc2OC)c2ccncc2c1=O
Found: 6

Lookup: Which DC50 value is on record for COc1cc(-c2cn(C)c(=O)c3cnccc23)cc(OC)c1CCN1CCC(OC2CCN(C(=O)c3cccc(N4CCC(=O)NC4=O)c3)CC2)CC1 ?
Found: 4

* * *

- target-or-system: BRD9-GFP (Homo sapiens, UniProt Q9H8M2)
- Construct: CHYSEL (2A cis-acting hydrolase element) remnant after GFP; mCherry is split off as a separate protein (C); expressed in transfected cells; host or cells: HEK293A cells (Invitrogen R70507), lentiviral transduction with pLenti6-BRD9-GFP-CHYSEL-mCherry, blasticidin selection
- Sequence (Q9H8M2 whole entry): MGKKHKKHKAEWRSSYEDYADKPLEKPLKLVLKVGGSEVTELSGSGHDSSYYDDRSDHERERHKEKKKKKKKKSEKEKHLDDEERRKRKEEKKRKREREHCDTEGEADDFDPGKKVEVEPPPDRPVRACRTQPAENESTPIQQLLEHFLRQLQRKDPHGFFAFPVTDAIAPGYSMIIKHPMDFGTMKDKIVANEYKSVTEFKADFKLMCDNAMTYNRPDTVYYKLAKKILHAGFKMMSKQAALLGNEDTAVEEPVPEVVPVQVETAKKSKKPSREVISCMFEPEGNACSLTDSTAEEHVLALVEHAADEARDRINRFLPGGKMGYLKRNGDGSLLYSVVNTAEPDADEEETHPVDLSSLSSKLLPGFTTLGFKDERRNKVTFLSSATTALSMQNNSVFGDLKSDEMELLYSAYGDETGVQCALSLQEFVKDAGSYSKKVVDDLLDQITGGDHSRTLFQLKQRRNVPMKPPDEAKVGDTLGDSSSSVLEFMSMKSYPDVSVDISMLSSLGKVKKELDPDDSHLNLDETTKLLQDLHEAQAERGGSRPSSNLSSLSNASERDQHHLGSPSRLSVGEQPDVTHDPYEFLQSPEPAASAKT
- assay-details: BRD9-GFP protein abundance flow cytometry assay in HEK293A cells
- Format: cell-based
- run-parameters: HEK293A-BRD9-GFP-CHYSEL-mCherry cells, 24 h at 37° C., 10-point 1:3 dilution; concentration at which 50% maximal degradation was observed
Collected DC50 values appear next to each entry.
# output: bare number, implied unit nM

// worked examples, DC50 included
line_notation=CCCCn1cc(-c2cc(OC)c(CCN3CCC(OC4CCN(CCn5cccc(CN6CCC(=O)NC6=O)c5=O)CC4)CC3)c(OC)c2)c2ccncc2c1=O endpoint_label=DC50 result=3
line_notation=COc1ccc(C(=O)N2CCC(OC3CCN(CCCc4c(OC)cc(-c5cn(C)c(=O)c6cnccc56)cc4OC)CC3)CC2)cc1N1CCC(=O)NC1=O endpoint_label=DC50 result=2

Proceeding to the next molecule to report its DC50.
Lookup: Quick one: DC50 for CCCCn1cc(-c2ccc(O[C@H]3CCN(CC4CCN(CCOc5ccc(C)c(N6CCC(=O)NC6=O)c5)CC4)C[C@@H]3F)c(OC)c2)c2ccncc2c1=O ?
Found: 34
